Just for reference, paper PMC6255099 is where these values come from.

target: benzodiazepine site on the GABAA receptor; assay: [3H]-flumazenil binding assay (GABA-benzodiazepine binding assay); settings: as worded in text b6
Measurement kind: Ki (mM)
One number for each entry, in mM.

[[record]]
compound = "O=C(/C=C/CCc1ccc2c(c1)OCO2)N1CCCCC1 [Compound 2, 4,5-Dihydropiperine]"
value_units = "mM"
result = 1.05


stdin: Can you share its Ki? I mean this compound: O=C(/C=C/C=C/c1ccc2c(c1)OCO2)N1CCCCC1
stdout: 1.18
